- SYSTEM_TESTED: T1, cynomolgus monkey CD8 alpha on primary cynomolgus CD8+ T cells (cynomolgus monkey, UniProt P01732 23-235 (human entry))
- T1 construct: also called Cyno CD8alpha; cyno CD8A
- TEST_DESCRIPTION: flow cytometry, cyno CD8+ T cells
- Experimental: Binding of the 190 ELISA hits to human and cynomologous monkey primary CD8 T cells was assessed by flow cytometry. The FN3 domain molecules were diluted to 2 μM and 0.2 μM in PBS and incubated with human or cynomologous monkey CD8+ T cells in 96-well format. […] Cells were gating on live cells and median fluorescence intensity of the bound Centyrins (PE channel) was calculated using Cytobank software.
QUANTITY_KIND: Cyno T-cell Binding 0.2 uM (MFI)
# number only, unit MFI dropped from output

Reported Cyno T-cell Binding 0.2 uM (MFI) for P283ER9P1365_B6 (designed binder, FN3 domain) LPAPKNLVVSRVTEDSARLSWTAPDAAFDSFGIGYAEPVVTGEAISLSVPGSERSYDLTGLKPGTEYWVVIIGVKGGINSYPLGAIFTT was 2690

Given item P283FR9P1366_D12 (designed binder, FN3 domain) LPAPKNLVVSRVTEDSARLSWTAPDAAFDSFDIAYPEWPLGGEAIVLTVPGSERSYDLTGLKPGTEYWVIILGVKGGDQSWPLSAIFTT , the value recorded as its Cyno T-cell Binding 0.2 uM (MFI) is 8140

Cyno T-cell Binding 0.2 uM (MFI) reported for this binder P283FR9P1366_H8 (designed binder, FN3 domain) LPAPKNLVVSRVTEDSARLSWTAPDAAFDSFYISYPEWPGSGEAIVLTVPGSERSYDLTGLKPGTEYAVFIWCVKGGWLSDPLSAIFTT : 17100

// sample P283HR7P1368_F6 (designed binder, FN3 domain) LPAPKNLVVSRVTEDSARLSWTAPDAAFDSFGIGYIEWVHRGEAISLHVPGSERSYDLTGLKPGTEYVVAIVGVKGGEPSTPLGAPFTT , its Cyno T-cell Binding 0.2 uM (MFI) was 3540
